For each entry below, report its normalized growth value.
experimentSummary: chemical genetic growth profiling, strain panel (AID 1159580);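 further: tested at 20 µM; growth read once vehicle control cultures reached saturation at 30 °C; 1 = growth at the plate median or of vehicle wells; lower values mean less growth of the strain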
experimentalContext: S. cerevisiae deletion strains, growth OD, locus YML120C, strain ndi1, stronger effect = lower value
Among all 5,500 compounds or so, about 2,000 (36%) were called active. Another 18% or so got no clear call; they are omitted. The list shows a part of the results.
One number for each entry.

compound	reportedMetric	valueMeasured
CN(Cc1cnc2nc(N)nc(N)c2n1)c1ccc(C(=O)NC(CCC(=O)O)C(=O)O)cc1 (stereo unspecified)	normalized growth	0.813
COc1cc(/C=C/C(=O)O)ccc1O	normalized growth	1
COc1cc(/C=C/C(=O)O)cc(OC)c1OC	normalized growth	1

Give me normalized growth for each of these compounds, listed below.
1. c1ccc2[nH]c(-c3cscn3)nc2c1
2. O=C(O)c1cc(=O)c(O)c2c(O)c(O)c(O)cc2c1
3. C[C@]12CCC3c4ccc(OS(=O)(=O)O)cc4CCC3C1CCC2=O (stereo partly specified)
4. CCCCC(CC)CN=C(N)NC(N)=NCCCCCCN=C(N)NC(N)=NCC(CC)CCCC (stereo unspecified)

1: 1; 2: 0.193; 3: 1; 4: 0.0582
